system: Neurogenic locus notch homolog protein 2 (Homo sapiens)
method_summary: Notch2 binders on small-molecule microarrays, primary screen, biochemical, small-molecule microarray, 635 nm fluorescence, stem cell growth factors (AID 1073)
condition: Notch2 binding, higher = more signal
Rule: composite z-score of 0.6 or more gives 1; anything lower gives -1.

Examples from the recorded data:
>>> discrete_label("C=CC[C@@]12N=C(c3ccc(OCCCO)cc3)O[C@@H]1c1ccccc1N(Cc1ccccc1)C2=O")
-1
>>> discrete_label("COCCOC(=O)N1C(=O)[C@@]2(c3cc(C#CCCO)ccc31)[C@H](c1ccc(O)cc1)N1[C@H](c3ccccc3)[C@H](c3ccccc3)OC(=O)[C@H]1[C@@H]2C(=O)N1CCc2cc(OC)c(OC)cc2C1")
1
>>> discrete_label("CCC[C@@H]1[C@@H](Sc2ccccc2)[C@@H](C(=O)O)[C@H](c2ccc(C)cc2)N1S(=O)(=O)c1ccc(C)cc1")
1
>>> discrete_label("O=C1C2C=CC(C(O)C(c3ccccc3)c3ccccc3)N(Nc3ccccc3)C2C(=O)N1c1ccccc1 (stereo not drawn)")
1
>>> discrete_label("C[C@H]1NC(=O)C([C@@H](C)OCc2ccccc2)NC(=O)[C@@]23C(=O)N[C@@H](Cc4ccccc4)C2[C@H](C)[C@@]2(C)O[C@H]2C3/C=C/C/C=C\\CNC1=O (stereo partly drawn)")
-1

Hello, I need to know if "C=C(COC)/C(=C/C[C@H](OC(=O)c1ccncc1)c1ccc(OCCO)cc1)c1cc(C(=O)OC)ccc1OC" has measured composite z-score not below 0.6. Thanks!
-1

Hello, I need to know if "O=C1O[C@H](c2ccccc2)[C@H](c2ccccc2)N2[C@H]1[C@@H](C(=O)NC[C@H](O)c1ccccc1)[C@]1(C(=O)Nc3ccc(C#CCCO)cc31)[C@H]2c1ccccc1OCCO" has measured composite z-score not below 0.6. Thanks!
-1

Hello, I need to know if O=C1OCCC/C=C\[C@H]2OC34C=CCN(Cc5ccccc5)C(=O)[C@H]3N(CCCCCO)C(=O)[C@@H]4C12 (stereo partly drawn) has measured composite z-score not below 0.6. Thanks!
-1
